Attribution: PubChem BioAssay (NCI)

tested on: SR leukemia; assay: NCI tumour cell line growth inhibition, 48 h
observable: TGI

Input line: Field request: TGI | item: "O=C(Cc1ccccc1)N/N=C/c1ccccc1O"
Output line: > 100 µM

Input line: Field request: TGI | item: "COc1cc2c(cc1OC)CCc1cc(OC)c(OC)cc1CC2"
Output line: > 100 µM

Input line: Field request: TGI | item: "Fc1ccc(-c2nn3ncccc3c2-c2ccnc(Nc3ccc4c(c3)OCCO4)n2)cc1"
Output line: > 23.2 µM

---

tested on: K-562 leukemia; test: NCI tumour cell line growth inhibition, 48 h
Assignment: determine reported TGI for the given molecules.

Input line: State its TGI on K-562 leukemia: "O=C1NN(C2=NNC3(C(=O)N2)c2ccccc2-c2ccccc23)C(c2ccccc2)=N/C1=C/c1ccc(O)cc1"
Output line: > 150 µg/mL

Input line: State its TGI on K-562 leukemia: "CC[CH2][Sn]([Cl])([Cl])[CH2]CC.Oc1ccccc1C=NCCN=Cc1ccccc1O"
Output line: > 100 µM

Input line: State its TGI on K-562 leukemia: "COC1(OC)CC(CO)(CNc2nc(N)nc(Cl)c2/C=N\O)C1"
Output line: > 100 µM

Input line: State its TGI on K-562 leukemia: "CCOP(=O)(CN1CCNCCNCC1)OCC"
Output line: > 100 µM

Input line: State its TGI on K-562 leukemia: "Cc1cc(=O)n2nc(CN3CCCCC3)sc2n1"
Output line: > 100 µM

Input line: State its TGI on K-562 leukemia: "COc1cc2c3c(n(CCNCCCNCCn4c5c(c6cc(OC)c(OC)cc6c4=O)C(=O)c4ccccc4-5)c(=O)c2cc1OC)-c1ccccc1C3=O"
Output line: 1.48 µM

Input line: State its TGI on K-562 leukemia: N#CCc1ccc(C(C#N)/C(CCCC(=O)Nc2cccc([N+](=O)[O-])c2)=N/NC(N)=S)cc1 (stereo unspecified)
Output line: > 100 µM

Input line: State its TGI on K-562 leukemia: O=C1NC2OCC(O)C(O)C2O1 (stereo unspecified)
Output line: > 100 µM

Input line: State its TGI on K-562 leukemia: "CC(C)=CC(=O)C[C@H]1C(=O)O[C@@H]2C[C@H]3C(C)=CC(=O)[C@@H](O)[C@]3(C)[C@H]3[C@@]4(O)OC[C@]32[C@@H]1[C@@H](C)[C@H]4O"
Output line: 1.3 µM

Input line: State its TGI on K-562 leukemia: "COC(=O)c1c(C)[nH]c(/C=C2\N=C(c3ccc[nH]3)C=C2OC)c1C"
Output line: > 27.5 µM

Input line: State its TGI on K-562 leukemia: "N#Cc1c(Cl)c2cc([N+](=O)[O-])ccc2n2c1nc1ccccc12"
Output line: > 36.7 µM

---

Assignment: determine reported TGI for the given molecules.
test system: SK-MEL-28 melanoma; test: NCI tumour cell line growth inhibition, 48 h

Input line: Field request: TGI | item: O=C(Nc1ccc(Cl)cc1Cl)C(=O)C(C(=O)c1ccncc1)C1OC(=O)c2ccccc21 (stereo not given)
Output line: > 100 µM

Input line: Field request: TGI | item: "Cc1ccc2c(c1)CN(C(=O)CCC(=O)OCc1ccccc1)c1ccc(C)cc1CN2C(=O)CCC(=O)OCc1ccccc1"
Output line: > 100 µM

Input line: Field request: TGI | item: "COc1ccc(-c2cc(=O)c3ccccc3[nH]2)c(OC)c1"
Output line: > 100 µM

Input line: Field request: TGI | item: "Cn1c(=O)c2[nH]c(CCCCC(=O)O)nc2n(C)c1=O"
Output line: > 100 µM

Input line: Field request: TGI | item: "CC(C)(C)C1=CC(=C(c2ccc(-c3c4nc(c(-c5ccc(C(=C6C=C(C(C)(C)C)C(=O)C(C(C)(C)C)=C6)c6cc(C(C)(C)C)c(O)c(C(C)(C)C)c6)cc5)c5ccc([nH]5)c(-c5ccc(C(=C6C=C(C(C)(C)C)C(=O)C(C(C)(C)C)=C6)c6cc(C(C)(C)C)c(O)c(C(C)(C)C)c6)cc5)c5nc(c(-c6ccc(C(=C7C=C(C(C)(C)C)C(=O)C(C(C)(C)C)=C7)c7cc(C(C)(C)C)c(O)c(C(C)(C)C)c7)cc6)c6ccc3[nH]6)C=C5)C=C4)cc2)c2cc(C(C)(C)C)c(O)c(C(C)(C)C)c2)C=C(C(C)(C)C)C1=O"
Output line: > 100 µM

---

test system: COLO 205 colon; assay: NCI tumour cell line growth inhibition, 48 h
observable: TGI

Input line: Field request: TGI | item: "CC1=N/C(=C\c2cccc([N+](=O)[O-])c2)C(=O)O1"
Output line: > 100 µM

Input line: Field request: TGI | item: "CC(=O)N[C@@H](Cc1ccc(O)cn1)C(=O)NCc1cccc(Cl)c1"
Output line: > 100 µM

Input line: Field request: TGI | item: "COc1cc2c(c(OC)c1OC)C(=O)[C@@H]1c3ccc([N+](=O)[O-])cc3C(=O)N(CCCBr)[C@H]21"
Output line: > 100 µM

---

test system: MOLT-4 leukemia; experiment: NCI tumour cell line growth inhibition, 48 h
observable: log10(TGI) (log10 of the value in µM)
Please interpret these as log10 of TGI where TGI is in µM.

Input line: Field request: log10(TGI) | item: Cc1ccc2c(c1)C1(C)OC(C=CC1=O)O2 (centres undefined)
Output line: -0.06

Input line: Field request: log10(TGI) | item: "O=C(/C(=C/c1cccc([N+](=O)[O-])c1)c1ccccc1)c1ccccc1"
Output line: 1.06

Input line: Field request: log10(TGI) | item: NC(CCC(=O)O)C(=O)N1CCN(c2nc(N3CCCC3)c3nc(Cl)c(NCc4ccccc4)nc3n2)CC1 (centres undefined)
Output line: 1.39

Input line: Field request: log10(TGI) | item: "NC(N)=N/N=C/c1c(-c2cccc([N+](=O)[O-])c2)nc2n1CCS2"
Output line: 1.47

Input line: Field request: log10(TGI) | item: "CCOC(=O)C(Cc1cn(S(=O)(=O)c2ccccc2)c2ccccc12)(NC(C)=O)C(=O)OCC"
Output line: 1.79

---

system: MALME-3M melanoma; assay: NCI tumour cell line growth inhibition, 48 h
observable: TGI

Input line: Field request: TGI | item: "NC(=S)Nc1ccc(S(=O)(=O)Nc2ccc(S(N)(=O)=O)cc2)cc1"
Output line: > 100 µM

Input line: Field request: TGI | item: CC1ON2CCCC2[C@H]1C(=O)N1C2CC3CCC2(CS1(=O)=O)C3(C)C (some centres undefined)
Output line: > 100 µM

Input line: Field request: TGI | item: "COc1ccc(N2C(=O)c3cc(C)cnc3S2(=O)=O)cc1"
Output line: > 100 µM

Input line: Field request: TGI | item: O=c1[nH]c(=O)n(C2OC(CO)C(O)C(O)C2O)cc1F (centres undefined)
Output line: > 100 µM

Input line: Field request: TGI | item: "CCCS(=O)(=O)/C(=C(\c1ccc(Br)cc1)S(=O)(=O)CCC)c1ccc(Br)cc1"
Output line: > 10 µM

Input line: Field request: TGI | item: "c1csc(-c2cc(-c3cccs3)c(-c3ccsc3)s2)c1"
Output line: > 100 µM

Input line: Field request: TGI | item: "COc1cccc(/C=C2\C(=O)N(C(=O)c3ccc(NC(C)=O)cc3)N=C2C)c1"
Output line: > 100 µM

Input line: Field request: TGI | item: "CN(/N=C/c1ccc(OCc2cccc(COc3ccc(C=O)cc3)n2)cc1)c1cnn(-c2ccc(Cl)cc2Cl)c(=O)c1Cl"
Output line: > 100 µM

Input line: Field request: TGI | item: Cc1ccc(-c2c3nc(c(-c4ccc(C)cc4)c4ccc([nH]4)c(-c4ccc(OCC5COC(C)(C)O5)cc4)c4nc(c(-c5ccc(C)cc5)c5ccc2[nH]5)C=C4)C=C3)cc1 (centres undefined)
Output line: > 31.6 µM

---

system: SK-MEL-5 melanoma; assay: NCI tumour cell line growth inhibition, 48 h; in the data active = GI50 below about 0.43 µM; inactive = the rest
Mark one answer only. Choices: label 1 = active, label 0 = inactive

Input line: What did the test return for "O=C(O)[C@@H]1CCCCN1Cc1cc2cc3c(cc2c2cc(OCc4ccccc4)ccc12)OCO3" ?
Output line: label 0

Input line: What did the test return for "O=C1/C(=C/c2ccc(O)cc2)CSc2ccc(Cl)cc21" ?
Output line: label 0

Input line: What did the test return for COC(=O)C12C3C4C1C1C2C3C41NC(=O)c1csc([C@@H](C[C@H](C(C)C)N(C)C(=O)[C@@H](NC(=O)[C@H]2CCCCN2C)C2CC2)OC(C)=O)n1 (stereo partly specified) ?
Output line: label 1

Input line: What did the test return for Cc1ccc2[nH]c(C(=O)NN3C(=O)C(C)SC34CCCC(C)C4)c(-c3ccccc3)c2c1 (stereo unspecified) ?
Output line: label 0

Input line: What did the test return for "CC(=O)O.[Au].c1ccc([PH+](c2ccccc2)c2ccccc2)cc1" ?
Output line: label 0

Input line: What did the test return for "N.N.O=C([O-])P(=O)([O-])[O-].[Na+].[Pt+4]" ?
Output line: label 0
